System tested: T1, GFP-9S library array, motif 4 ND N98I;D124G (synthetic construct, N98I;D124G)
T1 chain: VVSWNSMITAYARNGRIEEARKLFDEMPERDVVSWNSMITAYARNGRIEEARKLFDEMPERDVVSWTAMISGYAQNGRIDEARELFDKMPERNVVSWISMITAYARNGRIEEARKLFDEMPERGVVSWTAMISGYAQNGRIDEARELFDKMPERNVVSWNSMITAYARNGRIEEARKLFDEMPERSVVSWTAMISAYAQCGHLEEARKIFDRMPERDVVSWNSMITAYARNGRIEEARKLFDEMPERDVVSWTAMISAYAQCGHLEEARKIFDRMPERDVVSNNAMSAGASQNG
Assay details: high-throughput RNA pulldown from lysate on Ni-NTA beads; HRP: 50 mM Tris pH 8, 150 mM NaCl, 1 mM beta-mercaptoethanol, 50 ug/ml BSA, 3 ug/ml yeast RNA, 0.5% heparin; ITC and FP: Tris pH 8, 200 mM KCl, 5% glycerol; MST: 50 mM Tris pH 8, 200 mM NaCl, 1 mM DTT, BSA, heparin, 0.05% Tween 20
Setup conditions: tags: N-terminal His-eGFP; label: 5' Cy5
Attribute measured: Kd (nM)

{"Binder": "AUUACACGUGA (ssRNA) [Cy5-rpoA]", "Attribute measured": "Kd", "Unit of measure": "nM", "Val": 69.2}
{"Binder": "AUUAGACGUGA (ssRNA) [Cy5-rpoA-G]", "Attribute measured": "Kd", "Unit of measure": "nM", "Val": 72}
